STUDY TARGET: human F508del-CFTR (Homo sapiens, UniProt P13569, DEL508-508)
Sequence (P13569 with tags, fused parts or gaps DEL508-508): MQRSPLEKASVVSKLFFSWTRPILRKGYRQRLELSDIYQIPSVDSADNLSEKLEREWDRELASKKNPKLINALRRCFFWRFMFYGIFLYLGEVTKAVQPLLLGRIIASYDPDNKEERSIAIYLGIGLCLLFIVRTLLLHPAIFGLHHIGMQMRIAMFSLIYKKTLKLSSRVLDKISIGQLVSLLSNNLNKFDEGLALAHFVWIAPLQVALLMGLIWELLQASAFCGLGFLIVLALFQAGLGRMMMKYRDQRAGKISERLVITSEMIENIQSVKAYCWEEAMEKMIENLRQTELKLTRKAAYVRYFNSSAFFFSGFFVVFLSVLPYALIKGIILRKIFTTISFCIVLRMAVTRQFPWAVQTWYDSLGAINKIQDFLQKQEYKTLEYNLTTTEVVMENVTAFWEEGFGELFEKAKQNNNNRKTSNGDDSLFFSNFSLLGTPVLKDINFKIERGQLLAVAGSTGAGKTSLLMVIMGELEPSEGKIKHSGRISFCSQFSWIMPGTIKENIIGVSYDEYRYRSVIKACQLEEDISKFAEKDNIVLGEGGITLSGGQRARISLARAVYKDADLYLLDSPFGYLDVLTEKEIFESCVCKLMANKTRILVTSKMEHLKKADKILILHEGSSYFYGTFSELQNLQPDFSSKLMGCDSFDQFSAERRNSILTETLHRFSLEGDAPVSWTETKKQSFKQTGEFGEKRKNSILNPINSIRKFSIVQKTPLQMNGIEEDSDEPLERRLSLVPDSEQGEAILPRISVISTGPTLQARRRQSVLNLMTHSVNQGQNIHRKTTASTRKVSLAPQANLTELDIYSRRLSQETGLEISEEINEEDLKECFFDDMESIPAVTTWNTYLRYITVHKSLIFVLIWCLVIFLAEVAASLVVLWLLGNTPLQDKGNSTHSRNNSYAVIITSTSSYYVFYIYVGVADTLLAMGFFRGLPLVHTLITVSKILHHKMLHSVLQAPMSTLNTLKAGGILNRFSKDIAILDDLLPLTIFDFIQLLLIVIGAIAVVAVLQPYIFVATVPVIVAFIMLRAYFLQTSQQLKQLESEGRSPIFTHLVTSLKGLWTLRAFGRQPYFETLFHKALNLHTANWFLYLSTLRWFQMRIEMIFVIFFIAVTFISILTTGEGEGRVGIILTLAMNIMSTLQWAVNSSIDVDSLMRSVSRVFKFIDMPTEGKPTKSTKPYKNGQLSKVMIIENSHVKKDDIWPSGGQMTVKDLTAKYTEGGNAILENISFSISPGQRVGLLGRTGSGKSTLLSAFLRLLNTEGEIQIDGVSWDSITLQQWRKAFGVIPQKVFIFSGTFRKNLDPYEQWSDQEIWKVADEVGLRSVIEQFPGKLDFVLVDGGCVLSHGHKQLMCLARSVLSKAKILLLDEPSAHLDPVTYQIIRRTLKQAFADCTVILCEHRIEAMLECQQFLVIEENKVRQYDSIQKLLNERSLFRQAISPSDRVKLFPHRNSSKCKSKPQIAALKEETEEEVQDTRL
EXPERIMENT SUMMARY: F508del-CFTR cell surface expression (corrector activity), DiscoveRx ß-galactosidase complementation chemiluminescence assay in recombinant U2OS cell line;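 further: U2OS cells co-expressing ProLink-tagged F508del-CFTR and a membrane-anchored enzyme acceptor, where more surface CFTR restores β-galactosidase activity measured by chemiluminescence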
RUN CONDITIONS: EC50, F508del-CFTR cell surface expression, U2OS cells, 16h compound incubation; geomean values
Please provide measured pEC50 for the entries that follow.
In plain terms, pEC50 is the concentration in mol/L turned into minus its base-10 logarithm.

Asked: Give the measured pEC50 of COc1cccc(CCNC(=O)[C@@H]2CC(=O)N(C)[C@@H](CC(C)C)C(=O)N(C)[C@@H](CO)C(=O)N[C@H](Cc3ccccc3)COc3ccc4ccccc4c3C(=O)N2)c1 (mixture of isomers) .
Given back: 6.44

Asked: Give the measured pEC50 of "CC(C)C[C@H]1C(=O)N2CCCC[C@@H]2C(=O)N[C@H](Cc2ccccc2)COc2cnc3ccccc3c2C(=O)N[C@H](C(=O)NCCc2cc(C(F)(F)F)no2)CC(=O)N1C" .
Given back: 6.81

Asked: Give the measured pEC50 of "COc1cccc(CCNC(=O)[C@@H]2CC(=O)N(C)[C@@H](CC(C)C)C(=O)N3CCOC[C@@H]3C(=O)N[C@H](Cc3ccccc3)COc3ccc4c(cnn4C)c3C(=O)N2)c1" .
Given back: 6.08

Asked: Give the measured pEC50 of COc1nccc2c1C(=O)NC(C(=O)NCCc1cc(C3CC3)no1)CC(=O)N(C)C(CC(C)C)C(=O)N(C)C(CC1CCC(F)(F)CC1)C(=O)NC(Cc1ccccc1)CO2 (single isomer, unassigned) [Example 662] .
Given back: 6.91

Asked: Give the measured pEC50 of "CO[C@H]1C[C@]2(C1)C(=O)N[C@H](Cc1ccccc1)COc1ccc3ccccc3c1C(=O)N[C@H](C(=O)NCCc1ccc(-n3nccn3)cc1)CC(=O)N(C)[C@@H](CC(C)C)C(=O)N2C" .
Given back: 6.52

Asked: Give the measured pEC50 of "Cc1nc2ccc3c(c2o1)C(=O)N[C@H](C(=O)NCCc1cccc(OC(F)F)c1)CC(=O)N(C)[C@@H](CC(C)C)C(=O)N1CCN(C2CC2)C[C@@H]1C(=O)N[C@H](Cc1ccccc1)CO3" .
Given back: 6.45

Asked: Give the measured pEC50 of "CC(C)C[C@H]1C(=O)N2CCOC[C@@H]2C(=O)N[C@H](Cc2ccccc2)COc2cnc3ccc(F)cc3c2C(=O)N[C@H](C(=O)NCCc2nc(C3CC3)no2)CC(=O)N1C" .
Given back: 6.54

Asked: Give the measured pEC50 of "Cc1cc(CCNC(=O)[C@@H]2CC(=O)N(C)[C@@H](CC(C)C)C(=O)N(C[C@@H]3CCCC(C)(C)O3)CC(=O)N[C@H](Cc3ccccc3)COc3cnc4ccccc4c3C(=O)N2)on1" .
Given back: 6.30

Asked: Give the measured pEC50 of "COc1cccc(CCNC(=O)[C@@H]2CC(=O)N(C)[C@@H](CC(C)C)C(=O)N(C)[C@H](C)C(=O)N[C@H](Cc3ccccc3)COc3ccc4nccn4c3C(=O)N2)c1" .
Given back: 6.26

Asked: Give the measured pEC50 of "COc1noc(CCNC(=O)[C@@H]2CC(=O)N(C)[C@@H](CC(C)C)C(=O)N(C)[C@H](C)C(=O)N[C@H](Cc3ccccc3)COc3ccnc(OC)c3C(=O)N2)c1F" .
Given back: 6.52

Asked: Give the measured pEC50 of "CC(C)C[C@H]1C(=O)N2CCN(C3CC3)C[C@H]2C(=O)N[C@H](Cc2ccccc2)COc2cnc3ccccc3c2C(=O)N[C@H](C(=O)NCCc2nc3c(s2)CCC3)CC(=O)N1C" .
Given back: 6.46

Asked: Give the measured pEC50 of "COc1cc(CCNC(=O)[C@@H]2CC(=O)N(C)[C@@H](CC(C)C)C(=O)N(CCC3CCCCC3)CC(=O)N[C@H](Cc3ccccc3)COc3ccnc(OC)c3C(=O)N2)on1" .
Given back: 6.94

Asked: Give the measured pEC50 of "CC(C)C[C@H]1C(=O)N(CCC2CCCCC2)CC(=O)N[C@H](Cc2ccccc2)COc2ccc3ccccc3c2C(=O)N[C@H](C(=O)NCCc2ccc3c(c2)OCCC3)CC(=O)N1C" .
Given back: 6.82

Asked: Give the measured pEC50 of "COc1cc(CCNC(=O)[C@@H]2CC(=O)N(C)[C@@H](CC(C)C)C(=O)N3CCCC[C@@H]3C(=O)N[C@H](Cc3ccccc3)COc3ccc4cnc(C)cc4c3C(=O)N2)on1" .
Given back: 6.81

Asked: Give the measured pEC50 of "Cc1cc(CCNC(=O)[C@@H]2CC(=O)N(C)[C@@H](CC(C)C)C(=O)N3CCN(C(C)C)C[C@@H]3C(=O)N[C@H](Cc3ccccc3)COc3ccc4ccccc4c3C(=O)N2)on1" .
Given back: 6.61

Asked: Give the measured pEC50 of CC(C)C[C@H]1C(=O)N(CC2COc3ccccc3C2)CC(=O)N[C@H](Cc2ccccc2)COc2ccc3ccccc3c2C(=O)N[C@H](C(=O)NCCc2ccc3c(c2)OCO3)CC(=O)N1C (stereo partly shown) .
Given back: 6.73

Asked: Give the measured pEC50 of "COc1cc2c(cn1)OC[C@@H](Cc1ccccc1)NC(=O)[C@H]1CCCCN1C(=O)[C@H](CC(C)C)N(C)C(=O)C[C@@H](C(=O)NCCc1cc(C3CC3)no1)NC2=O" .
Given back: 6.01

Asked: Give the measured pEC50 of "CC(C)C[C@H]1C(=O)N(C)C2(CC2)C(=O)N[C@H](Cc2ccccc2)COc2cnc3ccccc3c2C(=O)N[C@H](C(=O)NCCc2nc(CC3CC3)no2)CC(=O)N1C" .
Given back: 6.43

Asked: Give the measured pEC50 of "Cc1cc(CCNC(=O)[C@@H]2CC(=O)N(C)[C@@H](CC(C)C)C(=O)N(C)C3(CC3)C(=O)N[C@H](Cc3ccccc3)COc3cnc4c(F)cccc4c3C(=O)N2)on1" .
Given back: 6.10
